Reference for the values: ChEMBL document CHEMBL5518227

TEST SYSTEM: Voltage-gated inwardly rectifying potassium channel KCNH2 (Homo sapiens)
Sequence (Q12809 whole entry): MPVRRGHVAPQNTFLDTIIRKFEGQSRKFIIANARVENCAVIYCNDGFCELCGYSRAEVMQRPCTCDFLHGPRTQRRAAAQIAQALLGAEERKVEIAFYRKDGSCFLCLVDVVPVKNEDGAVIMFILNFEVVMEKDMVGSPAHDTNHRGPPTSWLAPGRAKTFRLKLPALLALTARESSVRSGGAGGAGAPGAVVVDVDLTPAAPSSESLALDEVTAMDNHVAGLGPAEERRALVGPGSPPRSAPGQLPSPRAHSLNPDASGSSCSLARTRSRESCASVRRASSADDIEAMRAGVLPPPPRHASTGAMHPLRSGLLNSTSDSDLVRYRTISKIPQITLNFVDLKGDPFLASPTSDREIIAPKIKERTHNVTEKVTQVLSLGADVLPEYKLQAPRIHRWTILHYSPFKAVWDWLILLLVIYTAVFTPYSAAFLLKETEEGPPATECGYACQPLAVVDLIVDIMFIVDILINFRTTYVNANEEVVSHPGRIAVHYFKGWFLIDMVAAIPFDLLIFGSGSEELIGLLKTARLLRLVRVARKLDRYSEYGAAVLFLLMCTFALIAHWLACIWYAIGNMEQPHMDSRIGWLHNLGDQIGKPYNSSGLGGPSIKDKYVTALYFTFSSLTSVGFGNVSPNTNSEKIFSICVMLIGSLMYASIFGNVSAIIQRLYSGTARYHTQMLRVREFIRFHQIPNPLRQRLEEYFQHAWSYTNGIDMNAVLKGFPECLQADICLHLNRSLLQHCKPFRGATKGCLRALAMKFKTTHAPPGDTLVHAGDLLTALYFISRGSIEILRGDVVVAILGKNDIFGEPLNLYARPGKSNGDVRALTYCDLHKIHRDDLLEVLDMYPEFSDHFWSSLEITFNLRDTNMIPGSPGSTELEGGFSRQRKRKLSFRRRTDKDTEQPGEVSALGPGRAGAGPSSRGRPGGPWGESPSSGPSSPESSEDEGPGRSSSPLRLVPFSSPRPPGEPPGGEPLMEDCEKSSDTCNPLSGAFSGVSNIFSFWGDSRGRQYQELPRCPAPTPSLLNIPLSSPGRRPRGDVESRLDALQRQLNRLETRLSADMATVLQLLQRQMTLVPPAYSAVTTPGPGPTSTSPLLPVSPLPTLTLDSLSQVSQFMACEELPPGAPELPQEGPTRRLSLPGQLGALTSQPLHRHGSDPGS
ASSAY SUMMARY: Inhibition of human ERG stably expressed in CHO cells by automated Qpatch electrophysiological assay
PROPERTY MEASURED: IC50

What the record says about COc1cc(N[C@H](C(=O)c2c[nH]c3ccc(OC(F)(F)F)cc23)c2ccc(Cl)cc2OC)cc(S(C)(=O)=O)c1 [MOSNODENVIR] : IC50 is > 30 µM

====

TEST SYSTEM: Cytochrome P450 2C19 (Homo sapiens, UniProt P33261)
Sequence (P33261 whole entry): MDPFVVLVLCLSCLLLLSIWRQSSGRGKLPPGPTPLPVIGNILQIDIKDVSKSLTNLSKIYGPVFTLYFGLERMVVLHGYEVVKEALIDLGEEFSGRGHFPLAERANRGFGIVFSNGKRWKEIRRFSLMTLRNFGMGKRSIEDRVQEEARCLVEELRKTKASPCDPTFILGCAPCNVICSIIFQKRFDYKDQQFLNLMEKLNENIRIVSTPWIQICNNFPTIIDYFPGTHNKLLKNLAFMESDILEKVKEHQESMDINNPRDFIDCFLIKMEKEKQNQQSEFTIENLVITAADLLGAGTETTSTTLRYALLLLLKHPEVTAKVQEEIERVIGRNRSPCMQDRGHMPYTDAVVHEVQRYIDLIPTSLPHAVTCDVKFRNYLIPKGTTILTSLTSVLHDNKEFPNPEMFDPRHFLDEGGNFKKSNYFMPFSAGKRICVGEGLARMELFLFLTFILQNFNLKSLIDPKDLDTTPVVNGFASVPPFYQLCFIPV
PROPERTY MEASURED: IC50 (µM)
Return type: number; implicit unit µM.

I looked up COc1cc(N[C@H](C(=O)c2c[nH]c3ccc(OC(F)(F)F)cc23)c2ccc(Cl)cc2OC)cc(S(C)(=O)=O)c1 [MOSNODENVIR] and its IC50 for Cytochrome P450 2C19 (Homo sapiens, UniProt P33261) was 10.3

====

ASSAY SUMMARY: Elimination half life in 8 hrs fasted cynomolgus monkey assessed as liver blood flow at 1 mg/kg, iv measured upto 24 hrs by LC-MS/MS analysis
Type: ADME, organism-based, Macaca fascicularis
RUN CONDITIONS: in vivo, read-out: beta t1/2 (converted)
PROPERTY MEASURED: half-life
Respond with the figure and its unit, in that order.

What the record says about `COc1cc(N[C@H](C(=O)c2c[nH]c3ccc(OC(F)(F)F)cc23)c2ccc(Cl)cc2OC)cc(S(C)(=O)=O)c1` : half-life is 9.57 h

====

ASSAY SUMMARY: Metabolic stability in dog hepatocytes assessed as intrinsic clearance measured per million cells incubated upto 120 mins by LC-MS/MS analysis
Assay type: ADME, cell-based, Canis lupus familiaris, Hepatocyte
RUN CONDITIONS: read-out: CLH
PROPERTY MEASURED: hepatocyte CLint

What the record says about `COc1cc(N[C@H](C(=O)c2c[nH]c3ccc(OC(F)(F)F)cc23)c2ccc(Cl)cc2OC)cc(S(C)(=O)=O)c1` : hepatocyte CLint is 5.7 µL/min/1e6 cells

====

ASSAY SUMMARY: Clearance in Sprague-Dawley rat at 2.5 mg/kg, iv measured after 24 hrs by LC-MS/MS analysis
Assay type: ADME, organism-based
RUN CONDITIONS: in vivo
Property: clearance; scope: individual compounds
Return type: number; implicit unit mL/min/kg.

As a guide, the following entries are already answered.
| COMPOUND | QUANTITATIVE READOUT |
| --- | --- |
| COc1cc(NC(C(=O)c2c[nH]c3cc(OC)c(C)cc23)c2ccc(Cl)cc2OCCO)cc(S(C)(=O)=O)c1 (single isomer, unassigned; (+)) | 21 |
| COc1cc(N[C@H](C(=O)c2c[nH]c3ccc(OC(F)(F)F)cc23)c2ccc(Cl)cc2OC)cc(S(C)(=O)=O)c1 [MOSNODENVIR] | 4.9 |
| COc1cc(NC(C(=O)c2c[nH]c3cc(OC)c(C)cc23)c2ccc(F)cc2OC)cc(S(C)(=O)=O)c1 (single isomer, unassigned; (+)) | 14 |
| COc1cc(NC(C(=O)c2c[nH]c3cc(OC)c(C)cc23)c2ccc(Cl)cc2OC)cc(S(C)(=O)=O)c1 (configuration not stated) | 23 |
| COc1cc(NC(C(=O)c2c[nH]c3cc(OC)c(C)cc23)c2ccc(F)cc2OCCO)cc(S(C)(=O)=O)c1 (single isomer, unassigned; (+)) | 30 |

What the record says about COc1cc(NC(C(=O)c2c[nH]c3cc(F)ccc23)c2ccc(F)cc2OCCO)cc(S(C)(=O)=O)c1 (single isomer, unassigned; (+)) : clearance is 35

What the record says about COc1cc(NC(C(=O)c2c[nH]c3cc(F)ccc23)c2ccc(F)cc2OC)cc(S(C)(=O)=O)c1 (configuration not stated) : clearance is 16

====

ASSAY SUMMARY: Elimination half life in CD-1 mouse at 2.5 mg/kg, iv measured upto 24 hrs by LC-MS/MS analysis
Assay type: ADME, organism-based
RUN CONDITIONS: in vivo, read-out: beta t1/2 (converted)
PROPERTY MEASURED: half-life (h)
Return type: number; implicit unit h.

What the record says about `COc1cc(N[C@H](C(=O)c2c[nH]c3ccc(OC(F)(F)F)cc23)c2ccc(Cl)cc2OC)cc(S(C)(=O)=O)c1` : half-life is 6.2

====

ASSAY SUMMARY: Elimination half life in overnight fasted Beagle dog at 0.51 mg/kg, iv measured upto 24 hrs by LC-MS/MS analysis
Assay type: ADME, organism-based, Canis lupus familiaris
RUN CONDITIONS: in vivo, read-out: beta t1/2 (converted)
PROPERTY MEASURED: half-life (h)
Return type: number; implicit unit h.

What the record says about `COc1cc(N[C@H](C(=O)c2c[nH]c3ccc(OC(F)(F)F)cc23)c2ccc(Cl)cc2OC)cc(S(C)(=O)=O)c1` : half-life is 7.3

====

ASSAY SUMMARY: Volume of distribution at steady state in 8 hrs fasted cynomolgus monkey […] at 1 mg/kg, iv measured upto 24 hrs by LC-MS/MS analysis
Type: ADME, organism-based, Macaca fascicularis
RUN CONDITIONS: in vivo, read-out: Vdss
PROPERTY MEASURED: Vd (L/kg)
Return type: number; implicit unit L/kg.

What the record says about COc1cc(N[C@H](C(=O)c2c[nH]c3ccc(OC(F)(F)F)cc23)c2ccc(Cl)cc2OC)cc(S(C)(=O)=O)c1 [MOSNODENVIR] : Vd is 1.64

====

ASSAY SUMMARY: Metabolic stability in rat hepatocytes assessed as intrinsic clearance measured per million cells incubated upto 120 mins by LC-MS/MS analysis
Type: ADME, cell-based, Hepatocyte
RUN CONDITIONS: read-out: CLH
Criterion: hepatocyte CLint strictly under 8 µL/min/1e6 cells. Met: T. Not met: F.

Some entries whose results are on file:
| MOLECULE | ASSIGNED CLASS |
| --- | --- |
| COc1cc(NC(C(=O)c2c[nH]c3cc(OC)c(C)cc23)c2ccc(F)cc2OCCO)cc(S(C)(=O)=O)c1 (single isomer, unassigned; (+)) | F |
| COc1cc(NC(C(=O)c2c[nH]c3cc(OC)c(C)cc23)c2ccc(F)cc2OC)cc(S(C)(=O)=O)c1 (single isomer, unassigned; (+)) | F |
| COc1cc(NC(C(=O)c2c[nH]c3cc(OC)c(C)cc23)c2ccc(Cl)cc2OCCO)cc(S(C)(=O)=O)c1 (single isomer, unassigned; (+)) | T |
| COc1cc(N[C@H](C(=O)c2c[nH]c3ccc(OC(F)(F)F)cc23)c2ccc(Cl)cc2OC)cc(S(C)(=O)=O)c1 [MOSNODENVIR] | T |
| COc1cc(NC(C(=O)c2c[nH]c3cc(F)ccc23)c2ccc(F)cc2OC)cc(S(C)(=O)=O)c1 (configuration not stated) | F |

Problem: Given COc1cc(NC(C(=O)c2c[nH]c3cc(F)ccc23)c2ccc(F)cc2OCCO)cc(S(C)(=O)=O)c1 (single isomer, unassigned; (+)) , is recorded hepatocyte CLint strictly lower than 8 µL/min/1e6 cells?
Solution: F

Problem: Given COc1cc(NC(C(=O)c2c[nH]c3cc(OC)c(C)cc23)c2ccc(Cl)cc2OC)cc(S(C)(=O)=O)c1 (configuration not stated) , is recorded hepatocyte CLint strictly lower than 8 µL/min/1e6 cells?
Solution: T

====

ASSAY SUMMARY: AUC in overnight fasted Beagle dog at 2.37 mg/kg, po measured upto 24 hrs by LC-MS/MS analysis
Assay type: ADME, organism-based, Canis lupus familiaris
RUN CONDITIONS: in vivo
PROPERTY MEASURED: AUC at 24 h
Respond with the figure and its unit, in that order.

What the record says about `COc1cc(N[C@H](C(=O)c2c[nH]c3ccc(OC(F)(F)F)cc23)c2ccc(Cl)cc2OC)cc(S(C)(=O)=O)c1` : AUC at 24 h is 2940 ng·h/mL

====

ASSAY SUMMARY: Volume of distribution at steady state in CD-1 mouse at 2.5 mg/kg, iv measured upto 24 hrs by LC-MS/MS analysis
Type: ADME, organism-based
RUN CONDITIONS: in vivo, read-out: Vdss
PROPERTY MEASURED: Vd (L/kg)
Return type: number; implicit unit L/kg.

What the record says about `COc1cc(N[C@H](C(=O)c2c[nH]c3ccc(OC(F)(F)F)cc23)c2ccc(Cl)cc2OC)cc(S(C)(=O)=O)c1` : Vd is 2.5

====

Property: solubility thermodynamic at 24 h; scope: individual molecules
ASSAY SUMMARY: Thermodynamic solubility of the compound in aqueous buffer at pH 7.4 measured after 24 hrs by UPLC analysis
Type: physicochemical
RUN CONDITIONS: read-out: Therm_solubility
Return type: number; implicit unit µg/mL.

As a guide, the following entries are already answered.
| MOLECULE | RESULT UNIT | solubility thermodynamic at 24 h |
| --- | --- | --- |
| COc1cc(NC(C(=O)c2c[nH]c3cc(F)ccc23)c2ccc(F)cc2OC)cc(S(C)(=O)=O)c1 (configuration not stated) | µg/mL | 2 |
| COc1cc(NC(C(=O)c2c[nH]c3cc(F)ccc23)c2ccc(F)cc2OCCO)cc(S(C)(=O)=O)c1 (single isomer, unassigned; (+)) | µg/mL | 1 |
| COc1cc(NC(C(=O)c2c[nH]c3cc(OC)c(C)cc23)c2ccc(F)cc2OC)cc(S(C)(=O)=O)c1 (single isomer, unassigned; (+)) | µg/mL | 1 |

Now take the following molecule into account.
What the record says about COc1cc(NC(C(=O)c2c[nH]c3cc(OC)c(C)cc23)c2ccc(Cl)cc2OC)cc(S(C)(=O)=O)c1 (configuration not stated) : solubility thermodynamic at 24 h is 1
